System: MCF7/PRLR tumors
procedureText: MCF7/PRLR breast cancer xenograft, tumor size and tumor growth inhibition
Format: in vivo, NCr nude mice
conditionLabel: MCF7/PRLR tumors TRIAL #1; NCr Nude mice; multi-dose 15 mg/kg; Day 52

molecule: H1H6953N-DM1 (conjugate) VH: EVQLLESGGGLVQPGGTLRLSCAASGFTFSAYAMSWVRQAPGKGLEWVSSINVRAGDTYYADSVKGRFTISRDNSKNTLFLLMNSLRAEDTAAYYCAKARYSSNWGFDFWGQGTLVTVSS VL: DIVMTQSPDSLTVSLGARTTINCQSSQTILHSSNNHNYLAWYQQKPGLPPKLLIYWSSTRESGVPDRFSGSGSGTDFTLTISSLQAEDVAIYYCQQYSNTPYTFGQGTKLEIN
Final Tumor size mm^3 (mean ± SEM): 0 ± 0 mm^3
--
molecule: H1H6958N2: anti-PRLR antibody, receptor blocking, human IgG1 Fc form of H2M6958N2 of Table 1; HCVR/LCVR SEQ ID NOs 290/298 (antibody, V domains shown) VH: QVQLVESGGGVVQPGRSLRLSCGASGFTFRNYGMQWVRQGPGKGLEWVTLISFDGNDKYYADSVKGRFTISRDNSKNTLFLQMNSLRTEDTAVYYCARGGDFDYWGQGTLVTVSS VL: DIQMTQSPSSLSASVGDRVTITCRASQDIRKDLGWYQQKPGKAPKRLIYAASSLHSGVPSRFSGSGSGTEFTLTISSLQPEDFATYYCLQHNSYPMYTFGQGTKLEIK
Final Tumor size mm^3 (mean ± SEM): 483 ± 46 mm^3
--
molecule: H1H6975N-DM1 (conjugate) VH: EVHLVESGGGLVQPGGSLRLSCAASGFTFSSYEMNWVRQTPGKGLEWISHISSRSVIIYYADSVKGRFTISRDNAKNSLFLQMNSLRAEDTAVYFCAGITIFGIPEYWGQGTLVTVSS VL: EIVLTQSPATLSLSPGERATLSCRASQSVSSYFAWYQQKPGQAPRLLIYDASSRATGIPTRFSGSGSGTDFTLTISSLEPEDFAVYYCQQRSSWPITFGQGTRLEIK
Final Tumor size mm^3 (mean ± SEM): 0 ± 0 mm^3

Cited source: patent US10925971B2
